The reported numbers originate from patent US11541055B2.

test.method.notes: Compound cytotoxicity, XTT-based colorimetric assay
Format: cell-based
condition.label: human; uninfected MT2 cells, day 4, XTT
Reported CC50 at 4 days values for the following molecules.

Q: Form field: reported CC50 at 4 days of Cn1nc(NS(C)(=O)=O)c2c(Cl)ccc(-n3c([C@H](Cc4cc(F)cc(F)c4)NC(=O)Cn4nc(C(F)F)c5c4C(F)(F)[C@@H]4C[C@H]54)nc4cc(-c5nccc(C(F)(F)F)n5)ccc4c3=O)c21 (atropisomer, axis not shown; (P))
Ans: > 500 nM

Q: Entry COc1ncc(-c2ccc3c(=O)n(-c4ccc(Cl)c5c(NS(C)(=O)=O)nn(C)c45)c([C@H](Cc4cc(F)cc(F)c4)NC(=O)Cn4nc(C(F)F)c5c4C(F)(F)[C@@H]4C[C@H]54)nc3c2)cn1 (atropisomer, axis not shown; (P)) please
Ans: > 500 nM
